FYI, the data here is from patent US8530652B2.

# target.system: PAK4 kinase activity in whole cells (TR-293-KDG, modified HEK 293 overexpressing GEF-H1b and PAK4 KD) (Homo sapiens (Human), UniProt O96013)
# Sequence (O96013 321-572): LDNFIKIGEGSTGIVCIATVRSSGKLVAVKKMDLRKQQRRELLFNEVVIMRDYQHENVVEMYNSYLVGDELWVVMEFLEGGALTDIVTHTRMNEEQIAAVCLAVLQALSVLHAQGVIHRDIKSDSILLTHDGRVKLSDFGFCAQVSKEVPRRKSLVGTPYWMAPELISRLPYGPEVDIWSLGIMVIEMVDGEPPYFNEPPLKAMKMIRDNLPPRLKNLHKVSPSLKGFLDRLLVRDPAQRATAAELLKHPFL
# protocol.notes: PAK4 cellular assay: sandwich ELISA of PAK4-dependent phosphorylation of GEF-H1b in TR-293-KDG cells
# conditions: doxycycline-induced, 3-hour exposure, phospho-GEF-H1b ELISA
readout.kind: pEC50
The scale used: pEC50 is minus the common logarithm of the concentration in molar units.

Please look up its pEC50: CN(C)C[C@@H](NC(=O)N1Cc2c(Nc3ncnc4ccsc34)n[nH]c2C1(C)C)c1ccccc1
7.06

Another compound to look at: CCOc1ncc(F)c(Nc2n[nH]c3c2CN(C(=O)O[C@H](CN(C)C)c2ccccc2)C3(C)C)n1
8.36

Another compound to look at: CN(C)C[C@@H](NC(=O)N1Cc2c(Nc3ncnc4ccoc34)n[nH]c2C1(C)C)c1ccccc1
7.08

Another compound to look at: Cc1cc2c(Nc3n[nH]c4c3CN(C(=O)N[C@@H]3C[C@H]3c3ccccc3)C4(C)C)ncnc2s1 (relative stereo)
6.58

Another compound to look at: CN1CCN(C(=O)N2Cc3c(Nc4nc(Cl)nc5ccsc45)n[nH]c3C2(C)C)[C@@H](Cc2ccccc2)C1
7.80

Another compound to look at: Cc1nc(Nc2n[nH]c3c2CN(C(=O)N[C@@H]2C[C@H]2c2ccccc2)C3(C)C)cc(N(C)C)n1 (relative stereo)
5.83

Another compound to look at: Cc1nccc(Nc2n[nH]c3c2CN(C(=O)N[C@H](CN(C)C)c2ccccc2)C3(C)C)n1
7.17

Another compound to look at: CN(C)C[C@@H](NC(=O)N1Cc2c(Nc3ncncc3F)n[nH]c2C1(C)C)c1ccccc1
7.70

Another compound to look at: CC1(C)c2[nH]nc(Nc3nc(C#N)nc4ccccc34)c2CN1C(=O)N[C@@H]1C[C@H]1c1ccccc1 (relative stereo)
7.01

Another compound to look at: CC1(C)c2[nH]nc(Nc3nc(C(F)(F)F)nc4ccsc34)c2CN1C(=O)N[C@@H]1C[C@H]1c1ccccc1 (relative stereo)
7.49

Another compound to look at: CC1(C)c2[nH]nc(Nc3ncnc4ccoc34)c2CN1C(=O)N[C@H]1C[C@@H]1c1ccccc1 (relative stereo)
5.76

Another compound to look at: CC1(C)c2[nH]nc(Nc3ccnc(C#N)n3)c2CN1C(=O)N[C@@H]1C[C@H]1c1ccccc1 (relative stereo)
6.21

Another compound to look at: Cc1nc(Nc2n[nH]c3c2CN(C(=O)N[C@H](CN(C)C)c2ccccc2)C3(C)C)c2ccsc2n1
8.60

Another compound to look at: CN(C)C[C@@H](OC(=O)N1Cc2c(Nc3ccnc(C#N)n3)n[nH]c2C1(C)C)c1ccccc1
8.72

Another compound to look at: CC1(C)c2[nH]nc(Nc3ccnc(C(F)(F)F)n3)c2CN1C(=O)N[C@H]1C[C@@H]1c1ccccc1 (relative stereo)
6.01

Another compound to look at: CC1(C)c2[nH]nc(Nc3ncnc4sccc34)c2CN1C(=O)N[C@@H]1C[C@H]1c1ccccc1 [Example 50]
6.47

Another compound to look at: CN(C)C[C@@H](NC(=O)N1Cc2c(Nc3nc(Cl)nc4ccsc34)n[nH]c2C1(C)C)c1ccccc1
9.03

Another compound to look at: COc1nc(Nc2n[nH]c3c2CN(C(=O)NC2C[C@@H]2c2ccccc2)C3(C)C)nc(N2CCC[C@H]2CO)n1 (stereo partly shown)
5.90

Another compound to look at: CCOc1ncc(F)c(Nc2n[nH]c3c2CN(C(=O)N[C@H](CN(C)C)c2ccccc2)C3(C)C)n1
8.62

Another compound to look at: CN(C)c1nc(Cl)nc(Nc2n[nH]c3c2CN(C(=O)N[C@@H]2C[C@H]2c2ccccc2)C3(C)C)n1 (relative stereo)
6.30
